tested on: HCT-116; experiment: Cytotoxicity against human HCT-116 cells assessed as cell growth inhibition incubated for 48 hrs by MTT assay; format: functional, cell-based; conditions: HCT-116, 48 h
Please respond with YES when measured IC50 is strictly beneath 20 µM, and with NO in all other cases.

Ask | Is 20 µM strictly greater than the molecule's reported IC50? molecule: O=C1N/C(=N\Cc2ccccc2)S/C1=C1/CCNC(=O)c2[nH]ccc21
Reply | NO

Ask | Please indicate whether the reported IC50 of COc1cccc2c1C(=O)c1c(O)c3c(c(O)c1C2=O)C[C@@](O)(C(=O)CO)C[C@@H]3O[C@H]1C[C@H](N)[C@H](O)[C@H](C)O1 [DOXORUBICIN] is strictly below 20 µM.
Reply | YES

Ask | Consider the molecule CC(C)(C)c1ccc(C/N=C2\NC(=O)/C(=C3\CCNC(=O)c4[nH]ccc43)S2)cc1 . Is its IC50 strictly less than 20 µM?
Reply | NO

Ask | Confirm or reject: IC50 of O=C1N/C(=N\Cc2ccccc2Cl)S/C1=C1/CCNC(=O)c2[nH]ccc21 lies strictly below 20 µM
Reply | NO

Ask | Please check: IC50 for COc1ccc(C/N=C2\NC(=O)/C(=C3\CCNC(=O)c4c3ccn4C)S2)cc1 , strictly under 20 µM or not?
Reply | NO

Ask | Please let me know if O=C1N/C(=N\Cc2ccc(F)cc2)S/C1=C1/CCNC(=O)c2[nH]ccc21 shows IC50 below 20 µM.
Reply | YES

Ask | Lab note: confirm whether the reported IC50 for this molecule is below 20 µM, equality not counting. molecule: CC(C)(C)c1ccc(C/N=C2\NC(=O)/C(=C3\CCNC(=O)c4[nH]c5ccccc5c43)S2)cc1
Reply | YES

Ask | Does the reported IC50 of the following molecule sit strictly below 20 µM? Cc1ccc(C/N=C2\NC(=O)/C(=C3\CCNC(=O)c4[nH]ccc43)S2)cc1
Reply | YES

Ask | Find out if reported IC50 for COc1ccc(C/N=C2\NC(=O)/C(=C3\CCNC(=O)c4[nH]ccc43)S2)cc1 is less than 20 µM
Reply | YES

Ask | Consider the molecule COc1ccc(CC/N=C2\NC(=O)/C(=C3\CCNC(=O)c4[nH]ccc43)S2)cc1 . Is its IC50 strictly less than 20 µM?
Reply | YES

Ask | Take the molecule COc1ccc(C/N=C2\NC(=O)/C(=C3\CCNC(=O)c4[nH]c5ccccc5c43)S2)cc1OC and say whether its IC50 is less than 20 µM.
Reply | YES

Ask | For this molecule, is IC50 lower than 20 µM? O=C1N/C(=N\CCc2ccc(F)cc2)S/C1=C1/CCNC(=O)c2[nH]c3ccccc3c21
Reply | NO

Ask | For O=C1N/C(=N\Cc2ccc(F)cc2)S/C1=C1/CCNC(=O)c2[nH]c3ccccc3c21 , is the recorded IC50 below the cut-off of 20 µM?
Reply | NO

Ask | Consider the molecule O=C1N/C(=N\Cc2ccc(C(F)(F)F)cc2)S/C1=C1/CCNC(=O)c2[nH]ccc21 . Is its IC50 strictly less than 20 µM?
Reply | NO

Ask | Could you please tell me whether IC50 recorded for O=C1N/C(=N\Cc2ccc3c(c2)OCO3)S/C1=C1/CCNC(=O)c2[nH]c3ccccc3c21 is less than 20 µM?
Reply | NO

Ask | Given O=C1N/C(=N\Cc2ccc(Cl)cc2)S/C1=C1/CCNC(=O)c2[nH]ccc21 , is recorded IC50 strictly lower than 20 µM?
Reply | NO

Ask | In plain terms, does Cc1ccc(C/N=C2\NC(=O)/C(=C3\CCNC(=O)c4[nH]c5ccccc5c43)S2)cc1 come in under 20 µM for IC50?
Reply | YES

Ask | Criterion: IC50 strictly below 20 µM. Is it met by Cn1c2c(c3ccccc31)/C(=C1\S/C(=N/Cc3ccccc3)NC1=O)CCNC2=O ?
Reply | NO

Ask | Could you please tell me whether IC50 recorded for O=C1N/C(=N\CCc2ccccc2)S/C1=C1/CCNC(=O)c2[nH]ccc21 is less than 20 µM?
Reply | YES

Ask | IC50 under 20 µM? Item: O=C1N/C(=N\Cc2ccc(Cl)cc2)S/C1=C1/CCNC(=O)c2[nH]c3ccccc3c21
Reply | NO

Ask | Hello, is IC50 of the following molecule strictly smaller than 20 µM? O=C1N/C(=N\Cc2cccc(Cl)c2)S/C1=C1/CCNC(=O)c2[nH]c3ccccc3c21
Reply | NO

Ask | Determine whether this molecule shows IC50 lower than 20 µM (ties excluded): O=C1N/C(=N\Cc2ccc3c(c2)OCO3)S/C1=C1/CCNC(=O)c2[nH]ccc21
Reply | YES

Ask | Is the reported IC50 for O=C1N/C(=N\Cc2ccccc2)S/C1=C1/CCNC(=O)c2[nH]c3ccccc3c21 strictly below 20 µM?
Reply | NO

Ask | Consider COc1ccc(CC/N=C2\NC(=O)/C(=C3\CCNC(=O)c4[nH]c5ccccc5c43)S2)cc1 . Does its IC50 lie strictly below 20 µM?
Reply | YES

Ask | # TODO verify IC50 < 20 µM strictly for this molecule: COc1ccc(C/N=C2\NC(=O)/C(=C3\CCNC(=O)c4[nH]c5ccccc5c43)S2)cc1
Reply | YES
